Test system: Alternaria alternata
Assay Protocol: Antimicrobial activity against Alternaria alternata ATCC 66868 after 24 hr by broth dilution method
Assay type: functional
Condition Info: ATCC 66868, 24 h
Quantity Name: MIC (µg/mL)
The reply should be a number in µg/mL, with the unit left off.

The reported MIC of the compound CN(C)c1ccc(C2C(Cl)C(=O)N2/N=C2\C(=O)Nc3ccc(Cl)cc32)cc1 (stereo not given) was 4.68

The reported MIC of the compound O=C1Nc2ccc(Cl)cc2/C1=N/N1C(=O)CSC1c1ccccc1O (stereo not given) was 75

The reported MIC of the compound O=C1Nc2ccc(Cl)cc2/C1=N/N1C(=O)CSC1c1ccc(F)cc1 (stereo not given) was 9.37

The reported MIC of the compound O=C1Nc2ccc(Cl)cc2/C1=N/N1C(=O)CSC1c1ccccc1Cl (stereo not given) was 150

The reported MIC of the compound `Clc1ccccc1C(c1ccccc1)(c1ccccc1)n1ccnc1` was 2.34

* * *

Test system: Staphylococcus epidermidis
Assay Protocol: Antimicrobial activity against Staphylococcus epidermidis ATCC 12228 after 24 hr by broth dilution method
Format: functional
Condition Info: ATCC 12228, 24 h
Quantity Name: MIC (µg/mL)
The reply should be a number in µg/mL, with the unit left off.

The reported MIC of the molecule O=C1Nc2ccc(Cl)cc2/C1=N/N1C(=O)CSC1c1ccc(O)cc1 (stereo not given) was 9.37

The reported MIC of the molecule O=C1Nc2ccc(Cl)cc2/C1=N/N1C(=O)CSC1c1ccccc1Cl (stereo not given) was 150

The reported MIC of the molecule COc1ccc(C2C(Cl)C(=O)N2/N=C2\C(=O)Nc3ccc(Cl)cc32)cc1 (stereo not given) was 9.37

The reported MIC of the molecule CN(C)c1ccc(C2SCC(=O)N2/N=C2\C(=O)Nc3ccc(Cl)cc32)cc1 (stereo not given) was 18.8

The reported MIC of the molecule COc1cccc(C2C(Cl)C(=O)N2/N=C2\C(=O)Nc3ccc(Cl)cc32)c1 (stereo not given) was 37.5

* * *

Consider the following molecules; for each one, report its MIC.
Test system: Candida albicans
Assay Protocol: Antimicrobial activity against Candida albicans ATCC 10231 after 24 hr by broth dilution method
Assay type: functional
Condition Info: ATCC 10231, 24 h

The reported MIC of the molecule O=C1Nc2ccc(Cl)cc2/C1=N/N1C(=O)CSC1c1ccc(O)cc1 (centres undefined) was 4.68 µg/mL

The reported MIC of the molecule COc1ccc(C2C(Cl)C(=O)N2/N=C2\C(=O)Nc3ccc(Cl)cc32)cc1 (centres undefined) was 4.68 µg/mL

The reported MIC of the molecule CN(C)c1ccc(C2C(Cl)C(=O)N2/N=C2\C(=O)Nc3ccc(Cl)cc32)cc1 (centres undefined) was 4.68 µg/mL

The reported MIC of the molecule O=C1Nc2ccc(Cl)cc2/C1=N/N1C(=O)CSC1c1ccc(F)cc1 (centres undefined) was 9.37 µg/mL

* * *

System: Alternaria alternata
Assay Protocol: Antimicrobial activity against Alternaria alternata ATCC 66868 after 24 hr by broth dilution method
Assay type: functional
Condition Info: ATCC 66868, 24 h
Quantity Name: MIC (µg/mL)
The reply should be a number in µg/mL, with the unit left off.

The reported MIC of the molecule COc1cccc(C2C(Cl)C(=O)N2/N=C2\C(=O)Nc3ccc(Cl)cc32)c1 (stereo not given) was 18.8

The reported MIC of the molecule O=C1Nc2ccc(Cl)cc2/C1=N/N1C(=O)CSC1c1ccccc1 (stereo not given) was 37.5

The reported MIC of the molecule COc1ccc(C2C(Cl)C(=O)N2/N=C2\C(=O)Nc3ccc(Cl)cc32)cc1 (stereo not given) was 9.37

The reported MIC of the molecule O=C1Nc2ccc(Cl)cc2/C1=N/N1C(=O)CSC1c1ccco1 (stereo not given) was 37.5

The reported MIC of the molecule COc1ccc(C2SCC(=O)N2/N=C2\C(=O)Nc3ccc(Cl)cc32)cc1 (stereo not given) was 9.37

Cited source for all entries: ChEMBL document CHEMBL3046063
